Here the recorded CC50 is given for each entry.
Test system: K562
protocol: Cytotoxicity against Homo sapiens (human) K562 cells after 48 hr by sulforhodamine B assay
Assay type: functional
experimental conditions: K562, 48 h, read-out: LC50 (the source's name)

See these solved cases before continuing.
[
  {
    "smiles input": "Nc1nc(Cl)c2ncn(Cc3cccc(CCl)c3)c2n1",
    "CC50": "> 100 µM"
  },
  {
    "smiles input": "Nc1nc(Cl)c2ncn(Cc3ccc(CCl)cc3)c2n1",
    "CC50": "> 100 µM"
  },
  {
    "smiles input": "ClCc1ccc(Cn2cnc3c(Cl)nc(Cl)nc32)cc1",
    "CC50": "> 100 µM"
  },
  {
    "smiles input": "ClCc1ccccc1Cn1cnc2nc(Cl)nc(Cl)c21",
    "CC50": "> 100 µM"
  },
  {
    "smiles input": "Nc1nc(Cl)c2ncn(Cc3ccccc3CCl)c2n1",
    "CC50": "> 100 µM"
  }
]

State, for K562, measured CC50 of the compound listed here: `ClCc1ccc(Cn2cnc3c(Cl)ncnc32)cc1`
> 100 µM

State, for K562, measured CC50 of the compound listed here: `ClCc1ccc(Cn2cnc3ncnc(Cl)c32)cc1`
> 100 µM

State, for K562, measured CC50 of the compound listed here: `ClCc1cccc(Cn2cnc3c(Cl)nc(Cl)nc32)c1`
> 100 µM

State, for K562, measured CC50 of the compound listed here: `ClCc1cccc(Cn2cnc3ncnc(Cl)c32)c1`
> 100 µM

State, for K562, measured CC50 of the compound listed here: `ClCc1cccc(Cn2cnc3c(Cl)ncnc32)c1`
75.9 µM

State, for K562, measured CC50 of the compound listed here: `ClCc1cccc(Cn2cnc3nc(Cl)nc(Cl)c32)c1`
5.24 µM

State, for K562, measured CC50 of the compound listed here: `ClCc1ccccc1Cn1cnc2ncnc(Cl)c21`
83.2 µM

State, for K562, measured CC50 of the compound listed here: `ClCc1ccccc1Cn1cnc2c(Cl)ncnc21`
> 100 µM

State, for K562, measured CC50 of the compound listed here: `ClCc1ccccc1Cn1cnc2c(Cl)nc(Cl)nc21`
0.91 µM

State, for K562, measured CC50 of the compound listed here: `ClCc1ccc(Cn2cnc3nc(Cl)nc(Cl)c32)cc1`
> 100 µM

====

Here the recorded TGI is given for each entry.
Test system: HCT-116
protocol: Cytotoxicity against Homo sapiens (human) HCT116 cells after 48 hr by sulforhodamine B assay
Type: functional
experimental conditions: HCT-116, 48 h
Note: unit µM is implicit; provide only the numeric part.

See these solved cases before continuing.
[
  {
    "smiles input": "Nc1nc(Cl)c2ncn(Cc3ccc(CCl)cc3)c2n1",
    "TGI [µM]": 15
  },
  {
    "smiles input": "Nc1nc(Cl)c2ncn(Cc3cccc(CCl)c3)c2n1",
    "TGI [µM]": 3.89
  }
]

Proceeding to the next molecule to report its TGI.
State, for HCT-116, measured TGI of the molecule listed here: `ClCc1ccccc1Cn1cnc2nc(Cl)nc(Cl)c21`
4.07

====

Here the recorded TGI is given for each entry.
Tested on: OVCAR-5
protocol: Cytotoxicity against Homo sapiens (human) OVCAR5 cells after 48 hr by sulforhodamine B assay
Type: functional
experimental conditions: OVCAR-5, 48 h
Note: unit µM is implicit; provide only the numeric part.

See these solved cases before continuing.
[
  {
    "smiles input": "ClCc1cccc(Cn2cnc3c(Cl)ncnc32)c1",
    "TGI / µM": 4.36
  },
  {
    "smiles input": "ClCc1ccccc1Cn1cnc2nc(Cl)nc(Cl)c21",
    "TGI / µM": 5.75
  },
  {
    "smiles input": "ClCc1cccc(Cn2cnc3c(Cl)nc(Cl)nc32)c1",
    "TGI / µM": 20.4
  }
]

Please report TGI for the following compound: `ClCc1ccc(Cn2cnc3c(Cl)ncnc32)cc1`
9.23

Please report TGI for the following compound: `ClCc1ccccc1Cn1cnc2c(Cl)ncnc21`
6.6

Please report TGI for the following compound: `ClCc1cccc(Cn2cnc3ncnc(Cl)c32)c1`
19.9

Please report TGI for the following compound: `Nc1nc(Cl)c2ncn(Cc3cccc(CCl)c3)c2n1`
25.1

Please report TGI for the following compound: `Nc1nc(Cl)c2ncn(Cc3ccccc3CCl)c2n1`
39.8

Value source: ChEMBL document CHEMBL3044672
